# Tested On: murine VEGFR-2/EpoR chimera (flk-1/EpoR fusion, pmKE2) on cells (mouse; human, UniProt P35918 20-762; P19235 251-508, limits assumed)
# Sequence (P35918 other isoform, or with tags, fused parts or gaps mutant limits assumed, form in doubt): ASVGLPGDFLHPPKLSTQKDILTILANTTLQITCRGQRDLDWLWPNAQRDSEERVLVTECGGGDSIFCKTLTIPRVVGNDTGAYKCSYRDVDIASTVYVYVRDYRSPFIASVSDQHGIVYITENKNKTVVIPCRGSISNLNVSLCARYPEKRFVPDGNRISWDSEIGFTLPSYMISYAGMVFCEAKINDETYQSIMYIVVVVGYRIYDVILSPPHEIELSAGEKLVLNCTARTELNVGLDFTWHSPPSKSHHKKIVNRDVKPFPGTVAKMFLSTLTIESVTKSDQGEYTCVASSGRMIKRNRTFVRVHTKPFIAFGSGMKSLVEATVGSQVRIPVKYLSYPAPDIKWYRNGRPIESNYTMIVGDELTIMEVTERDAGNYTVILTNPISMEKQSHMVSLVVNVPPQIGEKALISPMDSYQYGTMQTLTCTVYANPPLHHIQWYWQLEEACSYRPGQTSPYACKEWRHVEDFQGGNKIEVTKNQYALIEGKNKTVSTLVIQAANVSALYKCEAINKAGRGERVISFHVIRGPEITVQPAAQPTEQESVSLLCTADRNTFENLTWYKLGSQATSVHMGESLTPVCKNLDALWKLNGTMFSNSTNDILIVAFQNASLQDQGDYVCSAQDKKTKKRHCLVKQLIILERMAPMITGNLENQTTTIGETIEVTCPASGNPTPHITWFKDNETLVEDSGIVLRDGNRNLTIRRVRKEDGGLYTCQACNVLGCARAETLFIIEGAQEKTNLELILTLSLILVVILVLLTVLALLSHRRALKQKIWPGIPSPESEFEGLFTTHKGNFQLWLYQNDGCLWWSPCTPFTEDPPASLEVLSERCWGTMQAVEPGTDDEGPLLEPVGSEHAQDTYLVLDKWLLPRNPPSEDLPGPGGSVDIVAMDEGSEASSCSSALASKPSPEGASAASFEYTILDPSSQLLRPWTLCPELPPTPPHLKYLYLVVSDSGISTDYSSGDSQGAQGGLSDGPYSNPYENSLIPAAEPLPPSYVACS
# Protocol Notes: cell-based or functional assay
Measurement Name: Inhibition of VEGF-induced proliferation, Ba/F3-Flk (IC50, nM)

- Binder: "E19 (designed binder, Del 1-8 10Fn3 clone; Flag-tagged in vitro translated protein in the radioactive assay, His6-tagged E. coli protein in BIAcore and cell assays; tags left out) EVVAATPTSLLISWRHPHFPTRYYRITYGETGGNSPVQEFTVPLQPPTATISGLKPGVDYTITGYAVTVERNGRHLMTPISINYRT"
  Quantitative Readout: 5.8
- Binder: "E26 (designed binder, Del 1-8 10Fn3 clone; Flag-tagged in vitro translated protein in the radioactive assay, His6-tagged E. coli protein in BIAcore and cell assays; tags left out) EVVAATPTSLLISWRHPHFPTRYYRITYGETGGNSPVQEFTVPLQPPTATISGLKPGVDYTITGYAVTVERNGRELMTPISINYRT"
  Quantitative Readout: 5.3
- Binder: "M5FL (designed binder, extension and tag left out) VSDVPRDLEVVAATPTSLLISWRHPHFPTRYYRITYGETGGNSPVQEFTVPLQPPLATISGLKPGVDYTITGYAVTKERNGRELFTPISINYRT"
  Quantitative Readout: 5.1
- Binder: "E29 (designed binder, Del 1-8 10Fn3 clone; Flag-tagged in vitro translated protein in the radioactive assay, His6-tagged E. coli protein in BIAcore and cell assays; tags left out) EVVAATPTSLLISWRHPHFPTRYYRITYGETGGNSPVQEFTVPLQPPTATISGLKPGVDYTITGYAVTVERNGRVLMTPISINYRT"
  Quantitative Readout: 4.7
- Binder: "E18 (designed binder, Del 1-8 10Fn3 clone; Flag-tagged in vitro translated protein in the radioactive assay, His6-tagged E. coli protein in BIAcore and cell assays; tags left out) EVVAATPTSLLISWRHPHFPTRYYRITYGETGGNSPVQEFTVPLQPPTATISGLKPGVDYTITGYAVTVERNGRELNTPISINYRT"
  Quantitative Readout: 2.4
